molecular target: D(1B) dopamine receptor (Homo sapiens); settings: Compound concentration 10 µM
Description: PDSP Primary Binding target: DRD5 - Compounds are tested at 10 uM concentration, plate are incubated at room temperature in the dark for 90 minutes. Reaction are stopped by vacuum filtration onto 0.3% polyethyleneimine soaked filter mats using Filtermate harvester. Scintilation cocktail is then melted onto microwave-dried filters on a hot plate and the radio activity is counted in Microbia counter.
TEST READOUT: inhibition (%)

- C/C(=N\NC(=O)[C@@H]1C(=O)NC[C@H]1c1ccccc1)c1cccc(Br)c1: -9.13
- N#Cc1c(O)nc(SCc2cccc(F)c2F)nc1C1CC1: 28.4
- C[C@H](CO)Nc1nc(SCc2cccc(Cl)c2F)nc2[nH]c(=O)sc12: -1.9
- COC(=O)[C@H]1[C@H]2C[C@H]3c4[nH]c5ccccc5c4CCN3C[C@H]2CC[C@@H]1O: 11.8
- CCCNS(=O)(=O)Nc1ncnc(OCCOc2ncc(Br)cn2)c1-c1ccc(Br)cc1: -1.25
- CCc1nn2c(C)cc(C)nc2c1Cc1ccc(-c2nnc(C3CCNCC3)o2)cc1: 6.13
